Taken from patent US20220112288A1.

tested.on: T1, human CD4 on the surface of SKW3 cells or human PBMCs (human, UniProt P01730 26-458)
T1 construct: whole, on cells; SKW3 CD4 knockout cells served as the negative cell line; also called hCD4; SKW3 WT
assay.protocol: FACS binning on SKW3 cells; competitor OKT4a, anti-human A647 secondary (its signal read); background 5000, max binding 35000
endpoint.label: OKT4a anti-hu A647 Secondary signal

binder	endpoint.label	meas.value
75110_03D16A (antibody, V domains shown, Tested here as non-clonal hybridoma supernatant from AlivaMab Mouse Kappa mice (detected with anti-mouse Fc and anti-human kappa)) VH: EVQLVESGGGLVQPGGSLRLSCAASGFTFSSYWMSWVRQAPGKGLEWVANINQDGGEKYYVDSVKGRFTISRDNAKNSLYLQMNSLRAEDTAVYYCVREGGQWLALDYWGQGTLVTVSS VL: DIQMTQSPSSVSASVGDRVTITCRASQGISSWLTWYQQKPGKAPKFLIYAASSLQSGVPSRFSGSGFGTDFTLTISSLQPEDFATYYCQQANSFPWTFGQGTKVEIK	OKT4a anti-hu A647 Secondary signal	35900
75110_05B13A (antibody, V domains shown, Tested here as non-clonal hybridoma supernatant from AlivaMab Mouse Kappa mice (detected with anti-mouse Fc and anti-human kappa)) VH: QVLLEQWGAGLLKPSETLSLTCAVYGGSFSGYYWTWIRQPPGKGLEWIGEINHRGSTNYNPSLKSRVTISIDTSKNQFSLKVKSVTAADTAMYYCTRPDSNWFDPWGQGTLVTVSS VL: DIQMTQSPSSVSASVGDRVTITCRASQDISNWLAWYQQKPGKAPKLLIFAASSLQSGVPSRFSGSGSGTDFTLTISSLQPEDFATYYCQQANSFPLTFGGGTKVEIK	OKT4a anti-hu A647 Secondary signal	5340
75110_07H07A (antibody, V domains shown, Tested here as non-clonal hybridoma supernatant from AlivaMab Mouse Kappa mice (detected with anti-mouse Fc and anti-human kappa)) VH: EVQVVESGGGLVQPGGSLRLSCAASGFTFSSYWMSWVRQAPGKGLEWVANIKEEGSEKYYVDSVKGRFTISRDNAKNSLYLQMNSLRAEDTAVYYCVREGGQWLALDYWGQGTLVTVSS VL: DIQMTQSPSSVSGSVGDRVTITCRASQGISSWLAWYQQKPGKAPKLLIFGASSLQSGVPSRFSGSGSGTDFTLTISSLQPEDFATYYCQQANSFPWTFGQGTKVQIK	OKT4a anti-hu A647 Secondary signal	39400
